Test system: Bacillus cereus
OUTCOME_MEASURE: MIC

Answered cases to consult:
| ENTRY_SMILES | MIC |
| --- | --- |
| CC(C)C[C@H](NC(=O)[C@@H](N)Cc1ccccc1)C(=O)NCC(=O)N[C@@H](CCCCN)C(=O)N[C@H](C(=O)N[C@@H](Cc1ccccc1)C(=O)N[C@@H](CCCCN)C(=O)N[C@@H](CCCCN)C(=O)N[C@H](C(=O)N[C@@H](CO)C(=O)N[C@@H](CCCCN)C(=O)N[C@H](C(=O)N[C@@H](Cc1ccccc1)C(=O)N1CCC[C@H]1C(=O)N[C@@H](C)C(=O)N[C@H](C(=O)N[C@@H](Cc1ccccc1)C(=O)NCC(=O)N[C@@H](CCCCN)C(=O)N[C@H](C(=O)O)C(C)C)C(C)C)C(C)C)C(C)C)C(C)C | ≥ 57.5 µM |
| CC[C@H](C)[C@H](NC(=O)[C@H](Cc1ccccc1)NC(=O)[C@H](CCCN=C(N)N)NC(=O)[C@H](CO)NC(=O)[C@@H](NC(=O)[C@H](C)NC(=O)[C@H](C)NC(=O)[C@H](CCCCN)NC(=O)[C@@H](NC(=O)[C@H](CS)NC(=O)[C@@H](NC(=O)[C@@H]1CCCN1C(=O)[C@H](CO)NC(=O)[C@H](Cc1ccc(O)cc1)NC(=O)[C@@H](N)CC(C)C)[C@@H](C)O)C(C)C)C(C)C)C(=O)NCC(=O)N[C@@H](CCCCN)C(=O)N[C@H](C(=O)N[C@@H](CO)C(=O)N[C@@H](C)C(=O)O)C(C)C | ≥ 122 µM |

[Q] Which measured MIC belongs to "CC[C@H](C)[C@H](NC(=O)[C@@H]1CCCN1C(=O)[C@H](Cc1ccccc1)NC(=O)[C@@H](N)Cc1ccccc1)C(=O)N[C@H](C(=O)NCC(=O)N[C@@H](CCCCN)C(=O)N[C@@H](CC(C)C)C(=O)N[C@@H](CC(C)C)C(=O)N[C@@H](CO)C(=O)NCC(=O)N[C@@H](CC(C)C)C(=O)N[C@@H](CC(C)C)C(N)=O)C(C)C" , tested on Bacillus cereus?
[A] ≥ 53.4 µM

[Q] Checklist item: MIC tested on Bacillus cereus, entry "CC[C@H](C)[C@H](NC(=O)[C@H](CO)NC(=O)[C@H](CO)NC(=O)[C@H](C)NC(=O)[C@@H](NC(=O)[C@H](Cc1cnc[nH]1)NC(=O)CNC(=O)[C@H](C)NC(=O)[C@@H](NC(=O)[C@H](CCCCN)NC(=O)[C@H](CCCCN)NC(=O)[C@@H](NC(=O)[C@@H](NC(=O)[C@H](CC(=O)O)NC(=O)[C@H](Cc1ccccc1)NC(=O)[C@H](CC(C)C)NC(=O)CN)[C@@H](C)CC)C(C)C)[C@@H](C)CC)[C@@H](C)CC)C(N)=O" , value?
[A] ≥ 56.5 µM

* * *

Tested on: Salmonella enterica subsp. enterica serovar Pullorum ATCC 7913
Assay: ≥ marks a high value that may be exact or a test limit, other limits are often not marked, values filed in µg/mL are converted to µM
OUTCOME_MEASURE: MIC

Recorded MIC, per entry:
| MOLECULE | MIC |
| --- | --- |
| CC[C@H](C)[C@H](NC(=O)[C@H](CC(C)C)NC(=O)[C@@H](NC(=O)[C@@H](N)CC(=O)O)[C@@H](C)CC)C(=O)N[C@H](C(=O)N[C@H](C(=O)NCC(=O)NCC(=O)N[C@@H](CCCCN)C(=O)N[C@@H](CC(=O)O)C(=O)N[C@@H](CCCN=C(N)N)C(=O)N[C@@H](CCCCN)C(=O)N[C@@H](CCCCN)C(=O)N[C@@H](CCCN=C(N)N)C(=O)N[C@@H](CCCN=C(N)N)C(=O)N[C@@H](CCCN=C(N)N)C(N)=O)C(C)C)[C@@H](C)CC [DILIIVGGKDRKKRRR] | 8 µM |
| NCCCC[C@H](NC(=O)[C@H](CCCCN)NC(=O)[C@H](CCCN=C(N)N)NC(=O)[C@H](CCC(=O)O)NC(=O)[C@@H](N)CCCCN)C(=O)N[C@@H](CCCN=C(N)N)C(=O)N[C@@H](CCCN=C(N)N)C(=O)N[C@@H](CCCN=C(N)N)C(N)=O [KERKKRRR] | ≥ 64 µM |

Next molecule, please.
[Q] Look up MIC for this molecule: CC[C@H](C)[C@H](NC(=O)[C@H](CC(C)C)NC(=O)[C@@H](NC(=O)[C@@H](N)CC(=O)O)[C@@H](C)CC)C(=O)N[C@H](C(=O)N[C@H](C(=O)NCC(=O)NCC(=O)N[C@@H](CCCCN)C(=O)N[C@@H](CCCN=C(N)N)C(=O)N[C@@H](CCCN=C(N)N)C(=O)N[C@@H](CCCN=C(N)N)C(N)=O)C(C)C)[C@@H](C)CC [DILIIVGGKRRR]
[A] ≥ 64 µM
